- Test system: HCC 2998
- assay.overview: NCI tumour cell line growth inhibition, 48 h
Activity calls are given as the source filed them. Rule as the data show it: active = GI50 up to about 1.1 µM and inactive = higher.
API: response.call in 1 (yes) (active), 0 (no) (inactive)

[Q] How was `C/C(=N\Nc1nc2ccccc2n1C)c1ccncn1` classified in this test?
[A] 0 (no)

[Q] How was Cc1cn(C2CC(N)C(C(=O)O)O2)c(=O)[nH]c1=O (configuration not stated) classified in this test?
[A] 0 (no)

[Q] How was `O=C(Cn1c2ccc(Br)cc2c2nc3ccccc3nc21)N1CCOCC1` classified in this test?
[A] 0 (no)

[Q] How was `COc1cc(=O)oc(/C=C/CO)c1C` classified in this test?
[A] 0 (no)

[Q] How was `N#Cc1sc2nc3ccccc3n2c1N` classified in this test?
[A] 0 (no)

[Q] How was `O=C(O)c1ccccc1Cc1ccco1` classified in this test?
[A] 0 (no)

[Q] How was `N=C(N)N/N=C(\c1ccc(F)cc1)c1ccc(C(F)(F)F)cc1` classified in this test?
[A] 1 (yes)

[Q] How was COC(=O)[C@]1(c2cc3ccccc3[nH]2)CC2CN(C(=O)OCc3ccccc3)C1C=C2OC (some centres not stated) classified in this test?
[A] 0 (no)

[Q] How was `CCOC(=O)c1nc2ccccc2nc1NCc1ccc(OC)c(OC)c1` classified in this test?
[A] 0 (no)

[Q] How was `CN1C(=O)[C@@H]2[C@@H]3c4ccccc4N[C@@H]3c3[nH]c4ccccc4c3[C@@H]2C1=O` classified in this test?
[A] 0 (no)

[Q] How was `C/C(C=O)=C/[C@@]1(C)O[C@@H](C)[C@@](C)(O)[C@@H]1O` classified in this test?
[A] 0 (no)

[Q] How was `CCCNC(=O)Cn1c2c(c3ccccc31)CCCC2` classified in this test?
[A] 0 (no)

###

- Test system: MDA-MB-435
- assay.overview: NCI tumour cell line growth inhibition, 48 h
Calls of active or inactive are those of the source. Rule as the data show it: active = GI50 up to about 1.1 µM and inactive = higher.
reported.endpoint: GI50

[Q] Would you kindly share the measured GI50 for `COCCCNc1c2ccccc2nc2ccccc12` ?
[A] 3.85 µM (inactive)

[Q] Would you kindly share the measured GI50 for COc1cc(/C=C2/SC(c3ccccc3)N(Cc3ccccc3)C2=O)cc(OC)c1OC (stereo unspecified) ?
[A] 53.2 µM (inactive)

[Q] Would you kindly share the measured GI50 for `C/C(CC(O)(C(F)(F)F)C(F)(F)F)=N\N` ?
[A] > 10 µM (inactive)

[Q] Would you kindly share the measured GI50 for `O=C(Nc1ccc2ccccc2c1)Nn1cnnc1` ?
[A] > 100 µM (inactive)

[Q] Would you kindly share the measured GI50 for `C/C(=C\c1ccccc1)C(=O)NCc1ccc(C(=O)NCCc2ccccc2)cc1` ?
[A] > 100 µM (inactive)

[Q] Would you kindly share the measured GI50 for N=C(N)Nc1ccc(CC(N)NCC(=O)O)cc1 (stereo unspecified) ?
[A] > 25 µM (inactive)

###

- System: LXFL 529
- assay.overview: NCI tumour cell line growth inhibition, 48 h
Calls of active or inactive are those of the source. Rule as the data show it: active = GI50 up to about 1.1 µM and inactive = higher.
API: response.call in t (active), f (inactive)

[Q] How was `CN(C)c1ccc(/C=C2\N=C(c3ccc(N)cc3)OC2=O)cc1` classified in this test?
[A] f

[Q] How was `C/C(=N\NC(=S)N1CCN(c2ccccn2)CC1)c1ncccn1` classified in this test?
[A] t

[Q] How was CCOC(=O)C1Sc2ccccc2N=C1C (configuration not stated) classified in this test?
[A] f

[Q] How was `N#Cc1ccc(/C=N\N2C(=O)c3ccccc3C2=O)cc1` classified in this test?
[A] f

[Q] How was `COc1ccc2c(c1)CCN1C3=C(CCC3)C(=O)C[C@@H]21` classified in this test?
[A] f

[Q] How was CCCCN(CC)CC(C(C)=O)c1c(O)c2ccccc2oc1=O (configuration not stated) classified in this test?
[A] f

[Q] How was `c1cc2nnsc2s1` classified in this test?
[A] f
